From: patent US8580556B2

In this section, each of the molecules is paired with its reported relative β-galactosidase activity, inducer Tb.
Test system: tetA promoter (PtetA)-lacZ reporter in E. coli KM3
Assay type: cell-based
Conditions: Table 4; tribenuron 20 μg/ml (20 ppm); 48 hrs at 30° C.
Form rule: numeric answer, no unit written next to it.

- molecule: "L1-28: library L1 hit, sulfonylurea-responsive TetR(B) variant (protein, Sulfonylurea responsive repressor L1-28) MGSRLDKSKVINSALELLNEVGIEGLTTRKLAQKLGVEQPTLYWHVKNKRALLDALAIEMLDRHATHFCPLEGESWQDFLRNNAKSMRCALLSHRDGAKVWLGTAWTEKQYETPENVLAFLCQQGFSLENALYASRAVVTFTLGCVLTDQEKQVAKEERETPTTDSMPPLLRQAWELLDHQGAEPAFLFGLELIICGLEKQLKCESGS"
  recorded value: 0.3
- molecule: "L1-31: library L1 hit, sulfonylurea-responsive TetR(B) variant (protein, Sulfonylurea responsive repressor L1-31) MGSRLDKSKVINSALELLNEVGIEGLTTRKLAQKLGVEQPTLYWHVKNKRALLDALAIEMLDRHATHFCPLEGESWQDFLRNNAKSMRCALLSHRDGAKVMLGTRATEKQYETVENRLAFLCQQGFSLENALYAVRAVHWFTLGCVLIDQEMQVAKEERETPTTDSMPPLLRQAYELYDHQGAEPAFLFGLELIICGLEKQLKCESGS"
  recorded value: 0.1
- molecule: "L1-44: library L1 hit, sulfonylurea-responsive TetR(B) variant, SEQ ID NO: 13 (protein, Sulfonylurea responsive repressor L1-44) MGSRLDKSKVINSALELLNEVGIEGLTTRKLAQKLGVEQPTLYWHVKNKRALLDALAIEMLDRHATHFCPLEGESWQDFLRNNAKSYRCALLSHRDGAKVYLGTAVTEKQYETAENQLAFLCQQGFSLENALYAVKAVAGFTLGCVLWDQESQVAKEERETPTTASMPPLLRQAVELADHQGAEPAFLFGLELIICGLEKQLKCESGS"
  recorded value: 0.4

In the following, a different molecule is considered.
Input line: I am curious: what relative β-galactosidase activity, inducer Tb value has been reported for L1-22: library L1 hit, sulfonylurea-responsive TetR(B) variant, SEQ ID NO: 7 (protein, Sulfornylurea responsive repressor L1-22) MGSRLDKSKVINSALELLNEVGIEGLTTRKLAQKLGVEQPTLYWHVKNKRALLDALAIEMMDRHHTHFCPLEGESWQDFLRNTAKSYRCALLSHRDGAKVCLGTAITEKQYETKENNLAFLCQQGFSLENALYARQAVRVFTLGCVLFDQEMQVAKEERETPTTDSMPPLLRQASELLDHQGAEPAFLFGLELIICGLEKQLKSESGS ?
Output line: 0.3
